Target Or System: SETD2(1434-1711) (Homo sapiens)
Construct: SETD2 (1434-1711) Assay; catalogue N/A
Procedure Summary: SETD2 (1434-1711) assay
Assay type: biochemical
Assay Context: read-out: SETD2 (1434-1711)
pIC50: −log10 of the molar value.
Recorded Metric: pIC50

Compound	Val
Cc1ccc(F)c2cc(C(=O)Nc3cccc(C4CCOCC4)c3)[nH]c12 [compound 101]	7.30

[A] CC(=O)N1CCN([C@@H]2CCC[C@@H](NC(=O)c3cc4c(F)ccc(C)c4[nH]3)C2)[C@@H](C)C1 [compound 1074]
[B] Cc1cccc2cc(C(=O)NC(C)c3ccn(C)n3)[nH]c12 (stereo not shown) [compound 712]
[C] Cc1ccc(F)c2cc(C(=O)Nc3cccc(N4CCN(C5CCOCC5)CC4)c3)[nH]c12 [compound 207]
**Query** Could you please order the items by pIC50, going from the lowest number to the highest? State the ranking by listing the labels in the requested order.
**Result** B, A, C
(B: 4.06, A: 5.35, C: 7.00)

###

Target Or System: SETD2(1434-1711) (Homo sapiens, UniProt Q9BYW2)
Construct: SETD2 (1434-1711) Assay; catalogue N/A
Sequence (Q9BYW2 1434-1711): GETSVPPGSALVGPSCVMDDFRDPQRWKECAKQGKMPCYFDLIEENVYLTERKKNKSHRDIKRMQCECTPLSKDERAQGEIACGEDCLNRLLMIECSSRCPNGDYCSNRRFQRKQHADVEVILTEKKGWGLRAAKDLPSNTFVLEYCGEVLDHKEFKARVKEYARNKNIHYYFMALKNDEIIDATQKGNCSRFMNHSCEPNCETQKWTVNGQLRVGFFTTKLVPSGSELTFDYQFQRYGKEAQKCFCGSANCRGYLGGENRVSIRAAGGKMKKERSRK
Procedure Summary: SETD2 (1434-1711) assay
Assay type: biochemical
Assay Context: read-out: SETD2 (1434-1711)
pIC50: −log10 of the molar value.
Recorded Metric: pIC50

Compound	pIC50
Cc1ccc(F)c2cc(C(=O)Nc3cc(F)cc4cnccc34)[nH]c12	7.40

[A] COCCN(C(C)=O)C1CCN(C2CCCC(NC(=O)c3cc4c(F)ccc(C)c4[nH]3)C2)C1 (centres unmarked) [compound 844]
[B] Cc1cccc2cc(C(=O)N[C@H](CO)c3ccccc3)[nH]c12
**Query** Of A and B , whose reported pIC50 is numerically smaller? Output the label that corresponds to your choice.
**Result** B
(B: 4.15, A: 5.07)

[P] Cc1ccc(F)c2cc(C(=O)N[C@@H]3CCCC(N4CCNC(=O)CC4)C3)[nH]c12 (some centres unmarked)
[Q] Cc1ccc(F)c2cc(C(=O)Nc3cccc(-c4ncn5ccccc45)c3)[nH]c12
[R] Cc1cccc2cc(C(=O)NC(c3ccccn3)c3ccccn3)[nH]c12
**Query** List the 3 entries from lowest pIC50 to highest pIC50 value. Return the labels ranked in the requested order, please.
**Result** R, Q, P
(R: 4.76, Q: 6.70, P: 7.00)

###

Target Or System: SETD2(1434-1711) (Homo sapiens)
Construct: SETD2 (1434-1711) Assay; catalogue N/A
Procedure Summary: SETD2 (1434-1711) assay
Type: biochemical
Assay Context: read-out: SETD2 (1434-1711)
pIC50: −log10 of the molar value.
Recorded Metric: pIC50

// worked examples, pIC50 included
Molecule	pIC50
CCC1CN(C2CCCC(NC(=O)c3cc4c(F)ccc(C)c4[nH]3)C2)CCN1C(C)=O (centres unmarked)	8.05
Cc1ccc(F)c2cc(C(=O)NC3CCCC(N4CCC5(CCC(=O)N5CC(F)(F)F)CC4)C3)[nH]c12 (centres unmarked) [compound 965]	7.70
Cc1ccc(F)c2cc(C(=O)Nc3cccc(N4CCC(N(C)CCF)C4)c3)[nH]c12 (centres unmarked) [compound 97]	7.40

[1] CC(=O)N1CCC(NC(=O)c2cc3cccc(C)c3[nH]2)CC1
[2] Cc1ccc(F)c2cc(C(=O)Nc3cccc(N4CCC5(CC4)CN(C)C5)c3)[nH]c12
**Query** Pick the one with the larger pIC50: 1 vs 2 Reply with the label of the item you choose.
**Result** 2
(2: 8.05, 1: 4.45)

[P] Cc1ccc(F)c2cc(C(=O)N[C@@H]3CCC[C@H](N4CC[C@H](N(C)C)C4=O)C3)[nH]c12
[Q] COCC(=O)N(C)C1CCN([C@H]2CCC[C@@H](NC(=O)c3cc4c(F)ccc(C)c4[nH]3)C2)C1 (some centres unmarked)
**Query** Of P and Q , which shows the smaller pIC50 value? Return value: the label identifying the chosen record.
**Result** P
(P: 6.30, Q: 7.70)

src = patent US12116358B2
